Biological target: α1(Q242L)β3 GABAAR (UniProt P28472+P62813, Q268L)
Assay: [3H]muscimol binding to HEK cell membranes, intersubunit site mutant
Parameters: expressed in transfected cells; host or cells: HEK293S GnTI- (ATCC CRL-3022), transient; species or system rat α1, human β3
Protocol: The human α1 and β3 GABAAR subunits were subcloned into pcDNA3 for molecular manipulations and cRNA synthesis. […] [^3H]muscimol-binding assays were performed using a previously described method ([Chen et al., 2019]). […] Time courses of neurosteroid [^3H]muscimol binding enhancement were examined by adding 10 µM of neurosteroids (3α5αP, 3β5αP) to membranes that had been fully equilibrated with 3 nM [^3H]muscimol for 1 hr on ice; binding was then measured as a function of time at 1, 3, 10, 30, 60 min. […]
recorded_endpoint: EC50 (nM)
Numbers only, in nM.

>  <molecule>
CC(=O)[C@H]1CC[C@H]2[C@@H]3CC[C@H]4C[C@@H](O)CC[C@]4(C)[C@H]3CC[C@]12C [3β5αP, epi-allopregnanolone]

>  <system_tested>
α1(Q242L)β3 GABAAR (UniProt P28472+P62813, Q268L)

>  <EC50 (nM)>
270

$$$$

Continue with the molecule presented below.
Qu. Look up and report measured EC50 for this entry: CC(=O)[C@H]1CC[C@H]2[C@@H]3CC[C@H]4C[C@H](O)CC[C@]4(C)[C@H]3CC[C@]12C [3α5αP, allopregnanolone]
Ans. 2660

---

target: α1(N408A/Y411F)β3 GABAAR (UniProt P28472+P62813, N434A/Y437F); construct: expressed in transfected cells; host or cells: HEK293S GnTI- (ATCC CRL-3022), transient; assay: [3H]muscimol binding to HEK cell membranes, α1 intrasubunit site mutant; parameters: species or system rat α1, human β3
Consider the following compounds; for each one, report its EC50.
Give bare numbers, in nM.

>  <compound>
CC(=O)[C@H]1CC[C@H]2[C@@H]3CC[C@H]4C[C@H](O)CC[C@]4(C)[C@H]3CC[C@]12C

>  <system_tested>
α1(N408A/Y411F)β3 GABAAR (UniProt P28472+P62813, N434A/Y437F)

>  <units_of_measure>
nM

>  <EC50>
2300

$$$$

Continue with the compound presented below.
Qu. // fetch EC50 for CC(=O)[C@H]1CC[C@H]2[C@@H]3CC[C@H]4C[C@@H](O)CC[C@]4(C)[C@H]3CC[C@]12C [3β5αP, epi-allopregnanolone] ; system: α1(N408A/Y411F)β3 GABAAR (UniProt P28472+P62813, N434A/Y437F)
Ans. 610

---

biological target: α1(V227W)β3 GABAAR (UniProt P28472+P62813, V253W); test: [3H]muscimol binding to HEK cell membranes, α1 intrasubunit site mutant V227W; details: 3 nM [3H]muscimol, read-out: EC50 for modulation of [3H]muscimol binding
recorded_endpoint: pEC50
Numbers only, as −log10 of the molar value.

Qu. Look up and report measured pEC50 for this entry: C#CCCO[C@H]1CC[C@H]2[C@@H]3CC[C@H]4CC5(CC[C@]4(C)[C@H]3CC[C@]12C)N=N5
Ans. 5.76

---

molecular target: α1(V227W)β3 GABAAR (UniProt P28472+P62813, V253W); assay: [3H]muscimol binding to HEK cell membranes, α1 intrasubunit site mutant V227W; details: read-out: Kd of [3H]muscimol binding isotherm
recorded_endpoint: Kd (nM)
Give bare numbers, in nM.

Qu. Look up and report measured Kd for this entry: NCc1cc(=O)[nH]o1 [muscimol]
Ans. 54.1

---

molecular target: α1(N408A/Y411F)β3 GABAAR (UniProt P28472+P62813, N434A/Y437F); experiment: [3H]muscimol binding to HEK cell membranes, α1 intrasubunit site mutant; conditions: α1(N408A/Y411F)β3; read-out: Kd of [3H]muscimol binding isotherm
recorded_endpoint: Kd (µM)
One number for each entry, in µM.

Qu. Look up and report measured Kd for this entry: NCc1cc(=O)[nH]o1 [muscimol]
Ans. 0.0607

---

Molecular target: α1β3 GABAAR (α1His-FLAGβ3) (Homo sapiens, UniProt P14867+P28472)
Construct: inserted between the fourth and fifth residues of the mature peptide; photolabeling full-length heteropentameric GABAARs in native membranes; expressed in transfected cells
Sequence (P14867 28-456): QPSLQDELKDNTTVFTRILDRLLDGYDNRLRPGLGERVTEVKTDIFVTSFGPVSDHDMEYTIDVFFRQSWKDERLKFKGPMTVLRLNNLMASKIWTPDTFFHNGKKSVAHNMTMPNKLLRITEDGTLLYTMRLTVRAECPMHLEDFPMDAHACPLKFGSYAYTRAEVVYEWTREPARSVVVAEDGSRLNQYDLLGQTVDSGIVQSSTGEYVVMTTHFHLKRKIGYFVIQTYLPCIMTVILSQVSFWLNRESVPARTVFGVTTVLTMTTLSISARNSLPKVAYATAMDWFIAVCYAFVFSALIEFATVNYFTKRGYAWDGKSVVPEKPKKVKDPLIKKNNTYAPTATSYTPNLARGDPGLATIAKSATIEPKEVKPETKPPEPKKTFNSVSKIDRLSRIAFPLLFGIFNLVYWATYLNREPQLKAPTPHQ
Sequence (P28472 26-473): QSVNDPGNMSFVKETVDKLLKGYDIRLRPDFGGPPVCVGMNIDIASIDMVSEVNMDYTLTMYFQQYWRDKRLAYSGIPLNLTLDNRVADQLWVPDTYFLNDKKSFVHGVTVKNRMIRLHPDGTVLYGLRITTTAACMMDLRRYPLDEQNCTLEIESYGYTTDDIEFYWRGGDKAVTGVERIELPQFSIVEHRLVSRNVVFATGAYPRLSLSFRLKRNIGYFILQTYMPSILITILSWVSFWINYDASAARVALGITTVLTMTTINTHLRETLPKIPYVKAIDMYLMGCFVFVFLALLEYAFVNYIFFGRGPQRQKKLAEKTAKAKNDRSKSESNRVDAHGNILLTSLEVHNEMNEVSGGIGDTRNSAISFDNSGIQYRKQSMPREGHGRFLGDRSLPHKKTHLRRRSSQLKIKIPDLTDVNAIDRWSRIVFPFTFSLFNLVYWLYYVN
Test: Neurosteroid photolabeling and competition, middle-down mass spectrometry
Type: binding
Conditions: 30 μM competitor, 3 μM KK200
Procedure: The syntheses of neurosteroid photolabeling reagents (KK148, KK150, KK200, KK123) are detailed in previous reports ([Jiang et al., 2016]; [Cheng et al., 2018]). […] For the photolabeling competition experiments, 3 μM KK200 or KK123 in the presence of 30 μM competitor (3α5αP, KK148, KK150, and 3β5αP) or the same volume of ethanol was added to the membrane proteins and incubated on ice for 1 hr. […]
recorded_endpoint: Prevention of KK200 photolabeling of β3G308 in the intersubunit site

>  <record_smiles>
CC(=O)[C@H]1CC[C@H]2[C@@H]3CC[C@H]4C[C@H](O)CC[C@]4(C)[C@H]3CC[C@]12C

>  <reading>
prevented

$$$$
>  <record_smiles>
C#CCCO[C@@H]1CC[C@H]2[C@@H]3CC[C@H]4CC5(CC[C@]4(C)[C@H]3CC[C@]12C)N=N5

>  <reading>
prevented

$$$$
>  <record_smiles>
C#CCCO[C@H]1CC[C@H]2[C@@H]3CC[C@H]4CC5(CC[C@]4(C)[C@H]3CC[C@]12C)N=N5

>  <reading>
prevented

$$$$

---

target: α1β3(Y284F) GABAAR (UniProt P28472+P62813, Y309F); construct: expressed in transfected cells; host or cells: HEK293S GnTI- (ATCC CRL-3022), transient; test: [3H]muscimol binding to HEK cell membranes, β3 intrasubunit site mutant; set-up: species or system rat α1, human β3; conditions: α1β3(Y284F); 3 nM [3H]muscimol; read-out: EC50 for modulation of [3H]muscimol binding
recorded_endpoint: EC50 (nM)
Answers are plain numbers, in nM.

Qu. Look up and report measured EC50 for this entry: C#CCCO[C@H]1CC[C@H]2[C@@H]3CC[C@H]4CC5(CC[C@]4(C)[C@H]3CC[C@]12C)N=N5
Ans. 1790

---

molecular target: α1β3 GABAAR WT (Homo sapiens, UniProt P14867+P28472); construct: inserted between the fourth and fifth residues of the mature peptide; photolabeling full-length heteropentameric GABAARs in native membranes; expressed in transfected cells; assay: [3H]muscimol binding to HEK cell membranes (neurosteroid modulation and isotherms), WT receptor; conditions: WT α1β3; 3 nM [3H]muscimol
recorded_endpoint: Hill slope for modulation of [3H]muscimol binding
Give bare numbers.

In the examples that follow, each entry is paired with its recorded Hill slope for modulation of [3H]muscimol binding.
>  <molecule>
C#CCCO[C@@H]1CC[C@H]2[C@@H]3CC[C@H]4CC5(CC[C@]4(C)[C@H]3CC[C@]12C)N=N5 [KK150]

>  <reading>
1.12

$$$$
>  <molecule>
C#CCCO[C@H]1CC[C@H]2[C@@H]3CC[C@H]4CC5(CC[C@]4(C)[C@H]3CC[C@]12C)N=N5 [KK148]

>  <reading>
1.36

$$$$
>  <molecule>
CC(=O)[C@H]1CC[C@H]2[C@@H]3CC[C@H]4C[C@@H](O)CC[C@]4(C)[C@H]3CC[C@]12C [3β5αP, epi-allopregnanolone]

>  <reading>
0.89

$$$$

Continue with the molecule presented below.
Qu. Look up and report measured Hill slope for modulation of [3H]muscimol binding for this entry: CC(=O)[C@H]1CC[C@H]2[C@@H]3CC[C@H]4C[C@H](O)CC[C@]4(C)[C@H]3CC[C@]12C [3α5αP, allopregnanolone]
Ans. 1.10
